- assayProcedure: molar heat capacity at constant pressure
- protocolConditions: 319.15 K; 101.33 kPa; Liquid; Large sample (1 g) DSC
The following molecules are listed with their measured molar heat capacity at constant pressure values.
Express the result in J/K/mol but write the number alone.

{"molecule": "CC[n+]1cccc(C)c1.O=S(=O)([N-]S(=O)(=O)C(F)(F)F)C(F)(F)F", "molar heat capacity at constant pressure [J/K/mol]": 510}
{"molecule": "CCC[n+]1cccc(C)c1.O=S(=O)([N-]S(=O)(=O)C(F)(F)F)C(F)(F)F", "molar heat capacity at constant pressure [J/K/mol]": 536}
{"molecule": "CCCCn1cc[n+](C)c1.N#CN=C=[N-] [1-butyl-3-methylimidazolium dicyanamide]", "molar heat capacity at constant pressure [J/K/mol]": 385}

Record summary for "CCCC[n+]1cccc(C)c1.O=S(=O)([N-]S(=O)(=O)C(F)(F)F)C(F)(F)F" : reported molar heat capacity at constant pressure = 569

Each recorded value in this set is attributed to the NIST ThermoML archive (doi:10.1016/j.tca.2013.05.007).
